Measure Name: melting point

For orientation, consider the following solved cases.
Molecule: Clc1cc(-c2ccccn2)ccn1
melting point: 80 to 81 °C
//
Molecule: CCCCOc1c(C(=O)O)n(CC(C)(C)C)c(=O)c2cc(F)ccc12
melting point: 184 to 185 °C
//
Molecule: CCc1nc2c(cnn2CC)c(NC2CCOCC2)c1CNC(=O)c1cc(C)cc(C(=O)NCc2cccc(-c3cccc(C=O)c3)c2)c1
melting point: 109 to 112 °C
//
Molecule: COc1ccc(OC)c(C(=O)Nc2ccc(N3CCOCC3)cc2C(C)=O)c1
melting point: 172 to 174 °C
//
Molecule: COc1cccc2oc(-c3ccc(C)cc3)cc(=O)c12
melting point: 169 to 171 °C

Which melting point value is on record for COc1cc2c(c(C(C)C)c1OC)CC(C)C(Br)=C2 (stereo not given) ?
71 to 72 °C

And the next one, O=C(O)COc1ccc(/C=C/C(=O)C(F)(F)F)cc1 ?
156 °C

And the next one, O=C(Cc1ccccc1)Oc1cc(=O)n(-c2ccccc2)c2ncccc12 ?
179 to 180 °C

And the next one, OCCn1cc(C(F)(F)F)nc1-c1ccc(O)cc1 ?
186 to 188 °C

And the next one, O=C(NO)c1ccc(CNC(=O)c2[nH]c(-c3cccs3)cc2-c2ccc(F)cc2)cn1 ?
189 to 191 °C

* * *

Below is a list of entries, each paired with its recorded melting point value.

For orientation, consider the following solved cases.
Compound: OCCN1CCCNC1=S
melting point: 112 to 114 °C
//
Compound: CCCCNc1cc(CN(Cc2ccccc2)C(=O)c2ccccc2)cc(S(N)(=O)=O)c1Oc1ccccc1
melting point: 137 to 138 °C
//
Compound: COc1cc(C(=O)Nc2c(C)cc3cn[nH]c3c2C(=O)NC(C)C)n(-c2ncccc2Cl)n1
melting point: 148 to 151 °C

Which melting point value is on record for COc1ccc(CN2Cc3cncn3C(c3ccc(C#N)cc3)C2=O)cc1 (stereo not given) ?
155 to 157 °C

And the next one, COc1cc(C(=O)CBr)cc(C#N)c1OC ?
138 to 141 °C

And the next one, Cc1ccc(Oc2nc3nc(C)cc(C)n3n2)c(C)c1 ?
133 to 136 °C

And the next one, O=C(Cc1ccncc1)NCc1cccc2c1C(=O)N(C1CCC(=O)NC1=O)C2=O (stereo not given) ?
294 to 296 °C

And the next one, O=C1COc2c(cc(Cl)cc2C(=O)NC2CCN(Cc3ccccc3)CC2)N1 ?
203 to 206 °C

And the next one, O=C1c2ccccc2CCn2cnnc21 ?
187 °C

And the next one, CC(C)C(=O)N1CCC(C(CS(=O)(=O)c2ccc(Oc3ccc(OC(F)(F)F)cc3)cc2)N(O)C=O)CC1 (stereo not given) ?
139 to 140 °C

* * *

Below is a list of entries, each paired with its recorded melting point value.

For orientation, consider the following solved cases.
Compound: OC1CCc2c(Br)ccc(Nc3cc(-c4ccc(C(F)(F)F)cc4)ncn3)c2C1 (stereo not given)
melting point: 192 °C

Compound: CCOCc1nc2cnc3cc(Br)cnc3c2n1CC(C)C
melting point: 115 to 116 °C

Compound: CC1CCCCC1NC(=O)[C@@H](C)NC(=O)[C@@H](N)CC(=O)O (stereo not given in full)
melting point: 206 to 209 °C

Compound: CCCn1nc2c(N)nc3ncccc3c2c1CC
melting point: 303 to 305 °C

Lab note: next compound to report on.
Which melting point value is on record for O=c1oc(-c2c(F)cccc2Cl)nn1-c1ccccc1Cl ?
92 to 95 °C

* * *

Below is a list of entries, each paired with its recorded melting point value.

For orientation, consider the following solved cases.
Compound: CCOC(=O)c1cc(OCCOC)c(OCCOC)cc1[N+](=O)[O-]
melting point: 50 to 51 °C
--
Compound: COc1cc2c(cc1OCCN(C)C)N(C(=O)c1ccc(-c3ccc(-c4noc(C)n4)cc3C)cc1)CC2
melting point: 140 to 141 °C
--
Compound: CC(C)OC(=O)C1=C(c2ccccc2)C(c2ccccc2)OC1=O (centres undefined)
melting point: 120 to 122 °C

Which melting point value is on record for CCCC[C@H](NC(=O)[C@H](CCCCNC(=O)OC(C)(C)C)NC(=O)OCc1ccccc1)C(=O)CSCc1ccco1 ?
60 to 63 °C

And the next one, COCCO[C@@H]1c2ccn3c(Cl)c(C)nc3c2N[C@H](c2ccccc2)[C@H]1O ?
123 to 126 °C

And the next one, CNc1cc(CO)cc(S(N)(=O)=O)c1Oc1ccccc1 ?
167 to 168 °C

* * *

Below is a list of entries, each paired with its recorded melting point value.

For orientation, consider the following solved cases.
Compound: COc1ccc(C2=NN(C(=O)c3cccnc3)CC2)cc1
melting point: 132 to 134 °C
//
Compound: COc1cc2nc(N3CCN(C(=O)CC(C)O)CC3)nc(N)c2cc1OC (stereo not given)
melting point: 220 to 222 °C
//
Compound: Nc1nc2c(ncn2Cc2ccccc2)c(=O)[nH]1
melting point: 305 to 308 °C
//
Compound: COCc1cnc2c(N)cc(C)cc2c1Cl
melting point: 135 to 138 °C

Which melting point value is on record for COc1nc(-c2ccc3c(c2)OCO3)c2cc3c(cc2n1)OCO3 ?
216 to 223 °C

And the next one, O=C1c2ccc(Cl)cc2-n2c1nc1ccccc1c2=O ?
301 to 303 °C

And the next one, CCn1nc(OCCCc2ccc(OCCOC)cc2OCc2ccc(Cl)cc2Cl)cc1CCC(=O)O ?
114 to 116 °C

And the next one, CC(O)=C(C#N)C(=O)N1CCN(c2ccc(NC(=O)c3cnn(-c4ccc(F)cc4)c3C)cc2C#N)CC1 ?
210 °C

And the next one, COCCNC(=O)c1ccc(C(=O)N2CCN(c3ncccc3NCC(C)C)CC2)nc1 ?
123 to 125 °C

And the next one, COc1cc(C=CC(=O)CCc2ccco2)ccc1O ?
82 to 84 °C

* * *

Below is a list of entries, each paired with its recorded melting point value.

Compound: O=C(NC1N=C(c2ccccc2F)c2ccccc2N(CC(=O)N2CC3CCC(CC3)C2)C1=O)c1cccc(O)c1 (racemic)
Measure Name: melting point
Reported Result: > 250 °C

Lab note: next compound to report on.
Which melting point value is on record for O=C(O)COc1cccc2c1CCC(CCn1cnc(-c3ccccc3)c1-c1ccccc1)C2 (centres undefined) ?
197 °C

* * *

Measure Name: melting point

For orientation, consider the following solved cases.
Compound: CCOC(=O)c1cnn2c1nc(OCCCN(C)C)c1cnc3c(cnn3CC)c12
Measure Name: melting point
Reported Result: 106 to 107 °C

Compound: Cc1ccc(-c2cncnc2N)cc1
Measure Name: melting point
Reported Result: 166 to 167 °C

Compound: Cc1ccccc1Cn1c(OCc2ccccc2)noc1=O
Measure Name: melting point
Reported Result: 77 to 78 °C

Which melting point value is on record for CC(C)(Sc1nc2ccccc2cc1-c1ccccc1)C(=O)O ?
144 to 146 °C

And the next one, Cn1nnc2cc(C(=O)NC3CCCn4c3nc(-c3ccncc3)cc4=O)ccc21 (racemic) ?
267 to 269 °C

* * *

Below is a list of entries, each paired with its recorded melting point value.

For orientation, consider the following solved cases.
Compound: CC1(C)c2ccccc2C(C)(C)N1Cc1ccccc1
melting point: 61 to 61.4 °C
//
Compound: Cc1cc2nc(Cl)nc(Cl)c2s1
melting point: 152 to 153 °C
//
Compound: COc1ccc(/C=C(\CSC(C)=O)C(=O)O)cc1
melting point: 155 °C

Which melting point value is on record for O=C=NC(=O)CS(=O)(=O)c1ccc(Cl)cc1 ?
58 to 60 °C

And the next one, C[C@@H]1CN(c2ccc(C(F)(F)F)cn2)C[C@H](C)N1CC(=O)N1CC=C(c2ccc3ccccc3n2)CC1 ?
94 to 95 °C

And the next one, CCc1nc2c(cnn2CC)c(NC2CCOCC2)c1CNC(=O)c1cccc(C(=O)NCc2ccc(Cl)c(-c3cccc(CN4CC(C)NC(C)C4)c3)c2)c1 (stereo unspecified) ?
121 to 124 °C

* * *

Below is a list of entries, each paired with its recorded melting point value.

Molecule: O=Cc1c(Cl)cccc1OC[C@H]1CO1
melting point: 62 to 64 °C

Molecule: CCc1nc(=O)c2ccccc2n1Cc1ccc(-c2ccccc2C#N)cc1
melting point: 207 to 208 °C

Molecule: CCn1ncc(C(=O)c2ccc(S(C)(=O)=O)c(CO)c2Cl)c1O
melting point: 70 to 76 °C

Molecule: COC(=O)[C@H](Cc1cccc2ccccc12)NC(=O)[C@H](CC(=O)OC(C)(C)C)NC(=O)c1cccc(NC(=O)OCc2ccccc2)c1
melting point: 95 to 98 °C

Molecule: CCCCCCCCC(O)CNCCCNCC(O)CCCCCCCC (stereo not given)
melting point: 104 to 108 °C

Which melting point value is on record for N#CC(C(=O)NCc1ccccc1Cl)C(=O)c1nn(-c2ccccc2)c2c1CSc1ccccc1-2 (stereo not given) ?
228 to 230 °C

And the next one, O=C1NCCc2c(OCCCCl)cccc21 ?
132 to 133 °C
